Measured MIC, listed per entry.
# Test system: E. faecalis NCTC12201
# protocol: MIC against Enterococcus bacteria
# Assay type: cell-based
# conditions used: Enterococcus faecalis, NCTC 12201 / VRE, quinolone-susceptible, read-out: MIC
The answer is to be given in µg/mL; state only the numeric part.

Worked examples follow.
compound	value
CC1COc2c(N3CCN(C)CC3)c(F)cc3c(=O)c(C(=O)O)cn1c23 (centres unmarked)	2
CCn1cc(C(=O)O)c(=O)c2cc(F)c(N3CCNCC3)cc21	2
C[C@@H]1CN(c2c(F)c(N)c3c(=O)c(C(=O)O)cn(C4CC4)c3c2F)C[C@H](C)N1	0.5
NC1CCN(c2nc3c(cc2F)c(=O)c(C(=O)O)cn3-c2ccc(F)cc2F)C1 (centres unmarked)	0.25

For the next question, use this compound.
Would you mind telling me what MIC value was observed for C[C@H]1COc2c(N3CCN(C)CC3)c(F)cc3c(=O)c(C(=O)O)cn1c23 ?
1

====

# Test system: S. aureus Mu50
# protocol: microbe, parasite or virus in culture
# Type: cell-based, Staphylococcus aureus
# conditions used: S. aureus Mu50, quinolone-resistant MRSA; ParC S80F, GyrA S84L
# Method: Then, the cell suspension was diluted 500 times with CAMHB mentioned above.
Reported values of MIC for individual entries
Just the number please, in µg/mL, no unit attached.

Some entries whose results are on file:
smiles str	target system	unit tag	MIC
COc1c(-c2ccc(O)cc2)ccc2c(CO)cc(=O)n(C3CC3)c12	S. aureus Mu50	µg/mL	2
Cc1cc2c(CO)cc(=O)n(C3CC3)c2cc1-c1ccc(O)cc1	S. aureus Mu50	µg/mL	0.25

Sample CCC(=O)OCc1cc(=O)n(C2CC2)c2cc(-c3ccc(N)cc3)c(F)cc12 — what was its MIC?
2

Which MIC is listed for CCc1cc(=O)n(C2CC2)c2cc(-c3ccc(O)cc3)c(F)cc12 ?
0.25

Look up MIC for this compound: C[C@@H]1CN(c2c(F)c(N)c3c(=O)c(C(=O)O)cn(C4CC4)c3c2F)C[C@H](C)N1
16

====

# Test system: Staphylococcus aureus KSA36 (MRSA)
# protocol: MIC, S. aureus categories (Test Example 3)
# Assay type: cell-based
Entries annotated with measured MIC

molecule	MIC
CC1COc2c(N3CCN(C)CC3)c(F)cc3c(=O)c(C(=O)O)cn1c23 (stereo not shown)	> 128 µg/mL
O=C(O)c1cn(C2CC2)c2cc(N3CCNCC3)c(F)cc2c1=O	128 µg/mL
O=c1cc(CO)c2cc(F)c(-c3ccc(O)cc3)cc2n1C1CC1 [J-131CP]	≤ 0.06 µg/mL
CCn1cc(C(=O)O)c(=O)c2cc(F)c(N3CCNCC3)cc21	> 128 µg/mL
C[C@@H]1CN(c2c(F)c(N)c3c(=O)c(C(=O)O)cn(C4CC4)c3c2F)C[C@H](C)N1	128 µg/mL
NC1CCN(c2nc3c(cc2F)c(=O)c(C(=O)O)cn3-c2ccc(F)cc2F)C1 (stereo not shown)	> 128 µg/mL

Which value of MIC has been reported for C[C@H]1COc2c(N3CCN(C)CC3)c(F)cc3c(=O)c(C(=O)O)cn1c23 in the records?
> 128 µg/mL

====

# System: S. aureus Mu50 NR1-1
# protocol: microbe, parasite or virus in culture
# Assay type: cell-based
# conditions used: Staphylococcus aureus, MU50NR11
measurement label: MIC (µg/mL)
Provide only the numeric value, understood in µg/mL.

Solved entries:
molecule	measurement label	unit tag	value
NC1CCN(c2nc3c(cc2F)c(=O)c(C(=O)O)cn3-c2ccc(F)cc2F)C1 (stereo not drawn)	MIC	µg/mL	0.5
C[C@@H]1CN(c2c(F)c(N)c3c(=O)c(C(=O)O)cn(C4CC4)c3c2F)C[C@H](C)N1	MIC	µg/mL	0.25
O=c1cc(CO)c2cc(F)c(-c3ccc(O)cc3)cc2n1C1CC1 [J-131CP]	MIC	µg/mL	0.25
C[C@H]1COc2c(N3CCN(C)CC3)c(F)cc3c(=O)c(C(=O)O)cn1c23	MIC	µg/mL	1
CCn1cc(C(=O)O)c(=O)c2cc(F)c(N3CCNCC3)cc21	MIC	µg/mL	16

# returns recorded MIC (system: S. aureus Mu50 NR1-1) for CC1COc2c(N3CCN(C)CC3)c(F)cc3c(=O)c(C(=O)O)cn1c23 (stereo not drawn)
2
